Each entry below lists one item and its recorded Trimeric HA Binding: RLU value.
target: recombinant soluble homotrimeric HA of A/Egypt/3300-NAMRU3/08 (H5N1) (Influenza A virus A/Egypt/3300-NAMRU3/2008(H5N1)); assay: trimeric HA microarray, transfection supernatant set 2; conditions: remark: other sources report otherwise
quantity.measured: Trimeric HA Binding: RLU

# binder, quantity.measured, recorded.value
data = [
    ("TCN-522 (3212_I12) (antibody, V domains shown) VH: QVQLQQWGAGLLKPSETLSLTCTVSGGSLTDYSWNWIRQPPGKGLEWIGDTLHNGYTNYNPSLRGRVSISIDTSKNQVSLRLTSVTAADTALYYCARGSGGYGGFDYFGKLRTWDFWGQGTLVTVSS VL: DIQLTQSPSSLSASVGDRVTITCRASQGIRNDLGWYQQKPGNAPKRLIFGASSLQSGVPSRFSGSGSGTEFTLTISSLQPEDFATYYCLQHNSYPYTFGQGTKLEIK", "Trimeric HA Binding: RLU", "55400 RLU"),
    ("TCN-528 (5087_P17) (antibody, V domains shown) VH: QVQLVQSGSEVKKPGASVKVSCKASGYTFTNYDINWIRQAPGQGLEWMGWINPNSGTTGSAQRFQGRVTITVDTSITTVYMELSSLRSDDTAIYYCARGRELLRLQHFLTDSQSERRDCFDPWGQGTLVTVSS VL: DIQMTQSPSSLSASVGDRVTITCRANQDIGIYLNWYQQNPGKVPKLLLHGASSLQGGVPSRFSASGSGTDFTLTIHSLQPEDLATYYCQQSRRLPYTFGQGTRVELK", "Trimeric HA Binding: RLU", "36800 RLU"),
    ("TCN-504 (3251_K17) (antibody, V domains shown) VH: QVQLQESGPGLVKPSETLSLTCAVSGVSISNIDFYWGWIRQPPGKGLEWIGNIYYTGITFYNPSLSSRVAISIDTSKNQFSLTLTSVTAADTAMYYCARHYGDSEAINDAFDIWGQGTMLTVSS VL: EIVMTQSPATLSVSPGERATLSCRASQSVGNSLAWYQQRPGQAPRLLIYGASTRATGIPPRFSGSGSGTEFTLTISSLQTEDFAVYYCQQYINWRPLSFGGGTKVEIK", "Trimeric HA Binding: RLU", "21400 RLU"),
]
